The reported measurements were obtained from paper PMC10786891.

Give Kd for every item shown.
- Test target: T1, EsCas13d, nuclease-dead (Eubacterium siraeum, UniProt B0MS50, R295A;H300A;R849A;H854A)
- T1 sequence: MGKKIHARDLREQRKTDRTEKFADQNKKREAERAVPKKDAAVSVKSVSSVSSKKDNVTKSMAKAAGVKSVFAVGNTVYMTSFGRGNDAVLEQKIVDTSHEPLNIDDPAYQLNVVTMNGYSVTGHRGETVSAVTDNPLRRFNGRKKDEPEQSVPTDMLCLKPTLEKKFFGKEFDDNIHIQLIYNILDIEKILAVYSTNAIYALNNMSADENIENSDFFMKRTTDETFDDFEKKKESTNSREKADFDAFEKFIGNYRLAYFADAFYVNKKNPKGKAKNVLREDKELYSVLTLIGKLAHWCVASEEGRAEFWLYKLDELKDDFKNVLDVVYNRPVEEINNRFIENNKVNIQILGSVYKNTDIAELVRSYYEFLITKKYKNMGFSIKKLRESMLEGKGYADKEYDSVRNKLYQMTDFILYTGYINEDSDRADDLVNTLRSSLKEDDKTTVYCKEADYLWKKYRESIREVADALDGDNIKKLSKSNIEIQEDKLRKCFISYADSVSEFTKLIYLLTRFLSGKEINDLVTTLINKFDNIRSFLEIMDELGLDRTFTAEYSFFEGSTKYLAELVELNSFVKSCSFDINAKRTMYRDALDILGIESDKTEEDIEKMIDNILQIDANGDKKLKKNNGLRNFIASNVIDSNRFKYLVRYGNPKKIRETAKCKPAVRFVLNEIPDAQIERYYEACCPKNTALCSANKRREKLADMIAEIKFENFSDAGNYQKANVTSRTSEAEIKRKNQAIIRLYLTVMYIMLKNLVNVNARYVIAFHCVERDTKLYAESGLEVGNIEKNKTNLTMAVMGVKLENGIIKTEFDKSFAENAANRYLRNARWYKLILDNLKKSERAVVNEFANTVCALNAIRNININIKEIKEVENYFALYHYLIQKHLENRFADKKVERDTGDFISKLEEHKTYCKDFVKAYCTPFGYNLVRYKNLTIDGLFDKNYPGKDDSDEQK
- Assay explanation: crRNA (strand 1, pre-loaded); Mg2+; 40 mM Tris-HCl pH 7.5, 150 mM NaCl, 6 mM MgCl2, 1 mM DTT, 0.1% Tween-20, 0.2 mg/ml BSA; 25 C; 10 min per concentration, then washed
- Condition label: tags: His6-TwinStrep-SUMO cleaved; N-terminal SNAP kept (SNAP-Surface 488); label: 3' end held by stalled T7 RNA polymerase
Answers are plain numbers, in nM.

Solved cases (3 shown):
target 2 MT 5'PFS GCA 3'PFS CAU (mixed) RNA 1: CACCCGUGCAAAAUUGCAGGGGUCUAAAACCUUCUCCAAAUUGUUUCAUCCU RNA 2: GGGAAUGGAUCCACAUCUACGAAUUCGCAAGGAUGAAACAAUUUGGAGAAGCAUAGAUCGGAAGAGCACACGU    8.8
target 1 A9G,C21U (mixed) RNA 1: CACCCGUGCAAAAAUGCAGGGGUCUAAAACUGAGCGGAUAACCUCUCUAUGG RNA 2: GGGAAUGGAUCCACAUCUACGAAUUCGUACUAUAGAGAGGUUGUCCGCUCACCGAGAUCGGAAGAGCACACGU    9
target 1 C6U,U19A (mixed) RNA 1: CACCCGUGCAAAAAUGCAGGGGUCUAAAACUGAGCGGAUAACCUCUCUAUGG RNA 2: GGGAAUGGAUCCACAUCUACGAAUUCGUACCAAAGAGAGGUUAUCUGCUCACCGAGAUCGGAAGAGCACACGU    34.9

Could you now consider this next binder?
Query string: Fill blank: measured Kd of the binder target 1 MT 5'PFS GCC 3'PFS CCA (mixed) RNA 1: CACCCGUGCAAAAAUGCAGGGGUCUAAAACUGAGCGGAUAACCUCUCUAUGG RNA 2: GGGAAUGGAUCCACAUCUACGAAUUCGCCCCAUAGAGAGGUUAUCCGCUCACCAAGAUCGGAAGAGCACACGU is ____.
Result string: 95
